meta.source: ChEMBL document CHEMBL1154290

Test system: Alpha-2C adrenergic receptor (Homo sapiens, UniProt P18825)
Sequence (P18825 whole entry): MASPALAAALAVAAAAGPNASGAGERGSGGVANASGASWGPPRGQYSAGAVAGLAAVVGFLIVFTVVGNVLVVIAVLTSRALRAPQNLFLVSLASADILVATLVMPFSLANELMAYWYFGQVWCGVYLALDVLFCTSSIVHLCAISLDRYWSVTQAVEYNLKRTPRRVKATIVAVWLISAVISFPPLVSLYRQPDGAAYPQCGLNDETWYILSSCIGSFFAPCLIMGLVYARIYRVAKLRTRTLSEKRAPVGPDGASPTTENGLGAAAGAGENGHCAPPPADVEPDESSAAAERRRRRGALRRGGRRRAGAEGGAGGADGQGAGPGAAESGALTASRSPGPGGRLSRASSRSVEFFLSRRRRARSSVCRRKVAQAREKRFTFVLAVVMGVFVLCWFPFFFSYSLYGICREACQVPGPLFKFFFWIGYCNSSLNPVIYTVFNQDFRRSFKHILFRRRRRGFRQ
Attribute measured: Ki

So, `COc1ccc(-c2c(C#N)c(C(=O)NN3CCCCC3)nn2-c2ccccc2[125I])cc1` ? Its Ki was > 10 µM

----------
Test system: UniProt P30536
Sequence (P30536 whole entry): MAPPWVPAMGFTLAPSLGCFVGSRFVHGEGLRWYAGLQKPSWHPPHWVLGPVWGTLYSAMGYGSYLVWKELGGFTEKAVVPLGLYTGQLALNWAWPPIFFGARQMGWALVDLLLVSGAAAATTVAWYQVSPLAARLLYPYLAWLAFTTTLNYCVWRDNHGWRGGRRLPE
Attribute measured: Ki (µM)
Just the number in µM, nothing appended.

So, `COc1ccc(-c2c(C#N)c(C(=O)NN3CCCCC3)nn2-c2ccccc2[125I])cc1` ? Its Ki was 3.17

----------
Test system: Kappa-type opioid receptor (Homo sapiens)
Sequence (P41145 whole entry): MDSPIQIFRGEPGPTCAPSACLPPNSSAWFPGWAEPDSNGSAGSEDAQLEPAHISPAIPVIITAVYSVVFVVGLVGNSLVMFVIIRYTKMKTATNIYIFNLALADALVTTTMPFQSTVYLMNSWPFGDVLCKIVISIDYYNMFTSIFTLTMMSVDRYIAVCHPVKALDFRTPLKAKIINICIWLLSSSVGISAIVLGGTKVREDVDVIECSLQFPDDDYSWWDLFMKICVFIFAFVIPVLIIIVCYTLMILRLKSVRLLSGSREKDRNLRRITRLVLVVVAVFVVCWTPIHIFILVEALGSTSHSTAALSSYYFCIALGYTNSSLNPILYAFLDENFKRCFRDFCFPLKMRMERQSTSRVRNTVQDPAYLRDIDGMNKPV
Attribute measured: pKi
pKi field: float, defined as -log10 of concentration (mol/L).

Measured pKi (Kappa-type opioid receptor (Homo sapiens)), entry `COc1ccc(-c2c(C#N)c(C(=O)NN3CCCCC3)nn2-c2ccccc2[125I])cc1` : 5.83
